Data credit: patent US8158792B2

- Test system: human lung tryptase
- Assay text: β-Tryptase In-Vitro Enzyme Assay
- Test parameters: human lung tryptase 1 nM, substrate H-D-HHT-Ala-Arg-pNa 500 μM, pH 7.4, room temperature
pIC50: −log10 of the molar value.
satisfied means recorded pIC50 is 7 or above; not satisfied means it is below 7.

Decide: is the reported value of pIC50 for NS(=O)(=O)NCc1ccc2c(c1)C1(CCN(C(=O)c3ccc(C#Cc4ccccc4)o3)CC1)CO2 [Cpd 305] equal to or greater than 7?
not satisfied

Input NCc1ccc2c(c1)C1(CCN(C(=O)c3cc4c(s3)CCCC4)CC1)CO2 [Cpd 163]
satisfied

Would you mind doing Cc1ccc(C)c(OCc2ccc(C(=O)N3CCC4(CC3)COc3ccc(CN)cc34)o2)c1 [Cpd 174] as well?
satisfied

Proceed to NCc1ccc2c(c1)C1(CCN(C(=O)c3ccc(F)c(Cl)c3)CC1)CO2 [Cpd 27]
satisfied

Can you handle NCc1ccc2c(c1)C1(CCN(C(=O)c3cc4cc(Cl)ccc4o3)CC1)CO2 [Cpd 13] next?
not satisfied

Query Cc1nc(-c2ccc(C(=O)N3CCC4(CC3)COc3ccc(CN)cc34)s2)cs1 [Cpd 206] next
not satisfied

What would you report for NCc1ccc2c(c1)C1(CCN(C(=O)[C@@H]3C[C@H]3c3ccccc3)CC1)CO2 (relative stereo) [Cpd 141] ?
not satisfied

Next up: COC(=O)c1ccc(S(=O)(=O)N2CC3(CCN(C(=O)c4ccc(C#Cc5ccccc5)o4)CC3)c3cc(CN)ccc32)o1 [Cpd 345]
satisfied

Next record, please: NCc1ccc2c(c1)C1(CCN(C(=O)c3cccc(SC(F)(F)F)c3)CC1)CO2 [Cpd 63]
satisfied

Then this compound: CCCSc1sc(C(=O)N2CCC3(CC2)COc2ccc(CN)cc23)c2c1C(=O)CCC2 [Cpd 211]
satisfied

NCc1ccc2c(c1)C1(CCN(S(=O)(=O)c3ccc(Cl)c(Cl)c3)CC1)CO2 [Cpd 280] , same question.
not satisfied

Again, but for COc1cccc2c1OCC(C(=O)N1CCC3(CC1)COc1ccc(CN)cc13)=C2 [Cpd 197]
not satisfied

Entry NCc1ccc2c(c1)C1(CCN(C(=O)c3ccc4ncsc4c3)CC1)CO2 [Cpd 16] please
not satisfied

Now consider NCc1ccc2c(c1)C1(CCN(C(=O)CCc3cccc(Cl)c3)CC1)CO2 [Cpd 83] .
not satisfied

Input NCc1ccc2c(c1)C1(CCN(C(=O)c3ccc(C#Cc4ccccc4)o3)CC1)CO2 [Cpd 3]
satisfied
